Values from ChEMBL document CHEMBL4145659

molecular target: Phospholipase A2 group V (Homo sapiens); assay: Inhibition of recombinant human sPLA2-5 expressed in Escherichia coli BL21(DE3) using 1-palmitoyl-2-oleoyl-sn-glycero-3-phosphocholine as substrate pretreated for 20 mins followed by substrate addition and measured after 60 mins
Sequence (P39877 whole entry): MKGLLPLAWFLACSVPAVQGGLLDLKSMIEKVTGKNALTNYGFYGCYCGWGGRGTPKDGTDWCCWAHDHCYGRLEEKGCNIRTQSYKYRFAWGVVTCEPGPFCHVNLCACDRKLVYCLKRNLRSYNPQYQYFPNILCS
pIC50: −log10 of the molar value.
Endpoint: pIC50

CCc1c(C(=O)C(N)=O)c2c(OCC(=O)O)cccc2n1Cc1ccccc1 :: 6.91

1: NC(=O)c1cc2ccc(C(F)(F)F)cc2n1-c1cccc(CCC(=O)O)c1
2: NC(=O)c1cc2ccc(OC(F)(F)F)cc2n1-c1cccc(CCC(=O)O)c1
Prompt: So which one has the bigger pIC50 here, 1 or 2 ? Please respond with the label that marks your chosen entry.
Completion: 2
(2: 5.65, 1: 5.43)

* * *

Biological target: Group 10 secretory phospholipase A2 (Homo sapiens) (UniProt O15496)
Sequence (whole entry): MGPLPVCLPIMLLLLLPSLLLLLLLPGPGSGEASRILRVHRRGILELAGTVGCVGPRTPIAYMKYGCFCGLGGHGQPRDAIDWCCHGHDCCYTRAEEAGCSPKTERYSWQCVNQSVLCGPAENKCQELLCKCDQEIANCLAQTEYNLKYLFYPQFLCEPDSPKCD
Experiment: Inhibition of recombinant human sPLA2-10 expressed in Escherichia coli BL21(DE3) using 1-palmitoyl-2-oleoyl-sn-glycero-3-phosphocholine as substrate pretreated for 20 mins followed by substrate addition and measured after 60 mins
Activity calls are given as the source filed them. No cut-off for these calls is given here.
Endpoint: inhibition

// worked examples, inhibition included
NC(=O)c1cc2ccsc2n1-c1cccc(CCC(=O)O)c1 :: inactive
NC(=O)c1nc2ccccn2c1-c1cccc(CCC(=O)O)c1 :: inactive
NC(=O)c1cc2sccc2n1-c1cccc(CCC(=O)O)c1 :: inactive
NC(=O)c1cccn1-c1cccc(CCC(=O)O)c1 :: inactive

Turning now to a further record.
Prompt: Can you look up the measured inhibition of NC(=O)c1cc2cccnc2n1-c1cccc(CCC(=O)O)c1 for me?
Completion: inactive

* * *

experiment: Clearance in Beagle dog at 1 µmol/kg, iv by LC/MS analysis; conditions: in vivo
Endpoint: clearance (mL/min/kg)
Give the quantity in mL/min/kg, number only.

Prompt: Can you look up the measured clearance of NC(=O)c1cc2ccc(OC(F)(F)F)cc2n1-c1cccc(CCC(=O)O)c1 for me?
Completion: 0.75

* * *

experiment: Intrinsic clearance in human hepatocytes assessed per million cells at 1 uM measured after 2 to 60 mins; assay type: ADME, cell-based, Hepatocyte; conditions: read-out: CLH
Endpoint: hepatocyte CLint at 1 µM (µL/min/1e6 cells)
Give the quantity in µL/min/1e6 cells, number only.

Prompt: Can you look up the measured hepatocyte CLint at 1 µM of NC(=O)c1cc2ccc(OC(F)(F)F)cc2n1-c1cccc(CCC(=O)O)c1 for me?
Completion: 1.7

* * *

assay: AUC in Beagle dog at 1 µmol/kg, iv by LC/MS analysis; conditions: in vivo
Endpoint: AUC (µM·h)
Give the quantity in µM·h, number only.

Prompt: Can you look up the measured AUC of NC(=O)c1cc2ccc(OC(F)(F)F)cc2n1-c1cccc(CCC(=O)O)c1 for me?
Completion: 8.78

* * *

experiment: Oral bioavailability in Sprague-Dawley rat at 4 µmol/kg administered via gavage by LC/MS analysis; settings: in vivo
Endpoint: bioavailability (%)
Give the quantity in %, number only.

Prompt: Can you look up the measured bioavailability of NC(=O)c1cc2ccc(OC(F)(F)F)cc2n1-c1cccc(CCC(=O)O)c1 for me?
Completion: 100

* * *

target: Group 10 secretory phospholipase A2 (Homo sapiens, UniProt O15496); assay: Inhibition of recombinant human sPLA2-10 expressed in Escherichia coli BL21(DE3) using HDL as substrate pretreated for 20 mins followed by substrate addition and measured after 60 mins
pIC50: −log10 of the molar value.
Endpoint: pIC50

A: N#Cc1ccc2cc(C(N)=O)n(-c3cccc(CCC(=O)O)c3)c2c1
B: NC(=O)c1cc2ccc(C(F)(F)F)cc2n1-c1cccc(CCC(=O)O)c1
C: NC(=O)c1cc2ccc(OC(F)(F)F)cc2n1-c1cccc(CCC(=O)O)c1
D: NC(=O)c1cc2ccc(C3CC3)cc2n1-c1cccc(CCC(=O)O)c1
Prompt: // sort entries: pIC50, high to low Response format: the labels, sorted as the prompt asks.
Completion: C, B, A, D

A: NC(=O)c1cc2ccc(OCC(F)(F)F)cc2n1-c1cccc(CCC(=O)O)c1
B: NC(=O)c1cc2ccc(OC(F)F)cc2n1-c1cccc(CCC(=O)O)c1
Prompt: So which one has the bigger pIC50 here, A or B ? Please respond with the label that marks your chosen entry.
Completion: B
(B: 6.43, A: 6.13)

* * *

assay: Volume of distribution at steady state in Beagle dog at 1 µmol/kg, iv by LC/MS analysis; settings: in vivo, read-out: Vdss
Endpoint: Vd (L/kg)
Give the quantity in L/kg, number only.

Prompt: Can you look up the measured Vd of NC(=O)c1cc2ccc(OC(F)(F)F)cc2n1-c1cccc(CCC(=O)O)c1 for me?
Completion: 0.44

* * *

target: Group 10 secretory phospholipase A2 (Mus musculus); assay: Inhibition of mouse sPLA2-10 using 1-palmitoyl-2-oleoyl-sn-glycero-3-phosphocholine as substrate pretreated for 20 mins followed by substrate addition and measured after 60 mins
Sequence (Q9QXX3 whole entry): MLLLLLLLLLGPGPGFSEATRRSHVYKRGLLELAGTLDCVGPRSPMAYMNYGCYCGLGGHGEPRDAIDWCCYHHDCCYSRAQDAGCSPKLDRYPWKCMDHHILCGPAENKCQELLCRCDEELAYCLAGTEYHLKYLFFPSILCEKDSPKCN
Endpoint: pIC50
On this scale, pIC50 is minus log10 of a concentration expressed in M (mol/L).

Prompt: Can you look up the measured pIC50 of NC(=O)c1cc2ccc(OC(F)(F)F)cc2n1-c1cccc(CCC(=O)O)c1 for me?
Completion: 7.02

* * *

test: Volume of distribution at steady state in Sprague-Dawley rat at 1 µmol/kg, iv by LC/MS analysis; details: in vivo, read-out: Vdss
Endpoint: Vd (L/kg)
Give the quantity in L/kg, number only.

Prompt: Can you look up the measured Vd of NC(=O)c1cc2ccc(OC(F)(F)F)cc2n1-c1cccc(CCC(=O)O)c1 for me?
Completion: 2.54

* * *

Target: Phospholipase A2, membrane associated (Homo sapiens)
Sequence (P14555 whole entry): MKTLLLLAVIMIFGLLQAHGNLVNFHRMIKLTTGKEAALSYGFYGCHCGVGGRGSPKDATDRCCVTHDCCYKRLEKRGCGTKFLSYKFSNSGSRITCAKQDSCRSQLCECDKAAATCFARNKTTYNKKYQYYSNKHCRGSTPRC
Assay: Inhibition of recombinant human sPLA2-2A expressed in Escherichia coli BL21(DE3) using 1-palmitoyl-2-oleoyl-sn-glycero-3-phosphocholine as substrate pretreated for 20 mins followed by substrate addition and measured after 60 mins
Endpoint: IC50 (µM)

// worked examples, IC50 included
NC(=O)c1cc2ccc(OC(F)F)cc2n1-c1cccc(CCC(=O)O)c1 :: 3.6
NC(=O)c1cc2ccc(Cl)cc2n1-c1cccc(CCC(=O)O)c1 :: 5.7
N#Cc1ccc2cc(C(N)=O)n(-c3cccc(CCC(=O)O)c3)c2c1 :: 3.9

1: NC(=O)c1cc2ccc(C3CC3)cc2n1-c1cccc(CCC(=O)O)c1
2: NC(=O)c1cc2ccc(OC(F)(F)F)cc2n1-c1cccc(CCC(=O)O)c1
3: NC(=O)c1cc2ccc(C(F)(F)F)cc2n1-c1cccc(CCC(=O)O)c1
4: CCc1ccc2cc(C(N)=O)n(-c3cccc(CCC(=O)O)c3)c2c1
Prompt: // ranking: key=IC50, reverse=True Response format: the labels, sorted as the prompt asks.
Completion: 4, 1, 3, 2
(4: 4.4 µM, 1: 2.3 µM, 3: 0.89 µM, 2: 0.31 µM)

* * *

biological target: Group 10 secretory phospholipase A2 (Homo sapiens, UniProt O15496); test: Inhibition of recombinant human sPLA2-10 expressed in Escherichia coli BL21(DE3) using 1-palmitoyl-2-oleoyl-sn-glycero-3-phosphocholine as substrate pretreated for 20 mins followed by substrate addition and measured after 60 mins
Endpoint: IC50 (nM)

// worked examples, IC50 included
Cc1cccc2cc(C(N)=O)n(-c3cccc(CCC(=O)O)c3)c12 :: 1900
NC(=O)c1cc2ccccc2n1-c1cccc(C(=O)NCC(=O)O)c1 :: 7200
NC(=O)c1cc2ccc(Cl)cc2n1-c1cccc(CCC(=O)O)c1 :: 90

a: CS(=O)(=O)NC(=O)CCc1cccc(-n2c(C(N)=O)cc3ccccc32)c1
b: N#Cc1ccc2cc(C(N)=O)n(-c3cccc(CCC(=O)O)c3)c2c1
c: NC(=O)c1cc2ccccc2n1-c1cccc(CC(=O)O)c1
d: NC(=O)c1cc2ccc(C(F)(F)F)cc2n1-c1cccc(CCC(=O)O)c1
e: NC(=O)c1cc2ccccc2n1-c1cccc(CCC(=O)O)c1
Prompt: // ranking: key=IC50, reverse=True Response format: the labels, sorted as the prompt asks.
Completion: c, a, e, b, d
(c: 10300 nM, a: 4800 nM, e: 990 nM, b: 110 nM, d: 43 nM)

1: COc1ccc2cc(C(N)=O)n(-c3cccc(CCC(=O)O)c3)c2c1
2: NC(=O)c1cc2ccc(C3CC3)cc2n1-c1cccc(CCC(=O)O)c1
Prompt: Returns the identifier with the smallest measured IC50 among 1 and 2 . Please respond with the label that marks your chosen entry.
Completion: 2

A: NC(=O)c1cc2ccccc2n1-c1cccc(/C=C/C(=O)O)c1
B: Cc1cccc2c1cc(C(N)=O)n2-c1cccc(CCC(=O)O)c1
C: NC(=O)c1cc2ccc(CO)cc2n1-c1cccc(CCC(=O)O)c1
D: CCc1ccc2cc(C(N)=O)n(-c3cccc(CCC(=O)O)c3)c2c1
E: NC(=O)c1cc2ccc(OCC(F)(F)F)cc2n1-c1cccc(CCC(=O)O)c1
Prompt: // ranking: key=IC50, reverse=True Response format: the labels, sorted as the prompt asks.
Completion: A, C, B, D, E
